- test.target: ADL acylase
- procedure.summary: Influence of glycine on the reaction rate
- assay.context: 0.1 M tris/HCl buffer; calculation according to Ingami and Murachi; read-out: Glycine concentration necessary for one-half the maximum reaction acceleration
readout.type: EC50 (mM)

In [3]: df
Out[3]:
   compound_structure_string  readout_type  recorded_result
0                   NCC(=O)O          EC50               90

* * *

- Test system: N-acetyldehydroleucine acylase
- procedure.summary: Hydrolysis of other compounds by the acylase (TLC / amino acid analyzer)
- Type: biochemical, Zoogloea ramigera
- assay.context: 50 mM test substrate, 0.1 M tris/HCl pH 9, 25° C.; hydrolysis rate with N-acetyldehydroleucine = 100%
Where a SMILES comes first, the peptide text is derived from it.
readout.type: rel. activity (%)

>>> print(df.to_string())
                                    molecule  recorded_result
 0  C[C@H](N)C(=O)N[C@@H](Cc1ccccc1)C(N)=O [L-alanyl-L-phenylalanine amide]                0
 1                  CN[C@@H](CCC(=O)O)C(=O)O                0
 2          CC(=O)NC(CC(C)C)C(=O)O (racemic)                0
 3        C[C@@H](N)C(N)=O [D-alanine amide]             0.46
 4  CC(=O)N[C@@H](C)C(=O)N[C@H](C(=O)O)C(C)C [N-acetyl-L-alanyl-L-valine] (Ac-Ala-Val-OH)                0
 5         C[C@H](N)C(N)=O [L-alanine amide]             0.35
 6   CC(C)CC(NC(=O)c1ccccc1)C(=O)O (racemic)                0
 7  CC(C)C[C@H](N)C(=O)NCC(=O)O [L-leucyl glycine] (H-Leu-Gly-OH)                0
 8  CC(=O)NC(=CC(C)C)C(=O)O [ADL, N-acetyl-2,3-didehydroleucine]            100.0
 9  C[C@H](N)C(=O)NCC(=O)O [L-alanyl glycine] (H-Ala-Gly-OH)                0
10         COC(=O)NC(CC(C)C)C(=O)O (racemic)                0
11   CC(C)C[C@@H](N)C(N)=O [D-leucine amide]             3.82
12               CNC(CC(C)C)C(=O)O (racemic)                0

* * *

- Tested on: N-acetyldehydroleucine acylase
- procedure.summary: Influence of additive substances on the splitting of N-acetyldehydroleucine under standard conditions
- Type: biochemical, Zoogloea ramigera
- assay.context: inhibitor 10 mM
Reported % Residual activity values for a set of molecules
readout.type: % Residual activity

>>> print(df.to_string())
                                   molecule                     test_target         readout_type  recorded_result
0                [Cl-].[Cl-].[Mg+2] [MgCl2]  N-acetyldehydroleucine acylase  % Residual activity              88%
1                [Cl-].[Cl-].[Zn+2] [ZnCl2]  N-acetyldehydroleucine acylase  % Residual activity              82%
2  CN(C)C(=O)Oc1cccc([N+](C)(C)C)c1 [Neostigmine]  N-acetyldehydroleucine acylase  % Residual activity              82%
